- ASSAYED TARGET: T1, human plasma kallikrein (human, UniProt P03952 20-390; P03952 391-638)
- T1 construct: two disulfide-linked chains; NP_000883.2; also called pKal; hpKal
- T1 sequence (P03952 20-390 limits assumed, chain 1 of 2): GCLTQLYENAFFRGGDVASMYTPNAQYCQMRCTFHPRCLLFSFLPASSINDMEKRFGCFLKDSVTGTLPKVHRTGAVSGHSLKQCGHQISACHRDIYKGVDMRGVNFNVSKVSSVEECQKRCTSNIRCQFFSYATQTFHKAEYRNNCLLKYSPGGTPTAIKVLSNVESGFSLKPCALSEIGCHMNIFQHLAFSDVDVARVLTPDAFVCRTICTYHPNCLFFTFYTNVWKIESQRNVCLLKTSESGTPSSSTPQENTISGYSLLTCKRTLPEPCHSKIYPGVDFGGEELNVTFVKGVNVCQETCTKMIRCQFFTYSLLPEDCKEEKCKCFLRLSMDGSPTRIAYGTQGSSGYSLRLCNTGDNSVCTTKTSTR
- T1 sequence (P03952 391-638 limits assumed, chain 2 of 2): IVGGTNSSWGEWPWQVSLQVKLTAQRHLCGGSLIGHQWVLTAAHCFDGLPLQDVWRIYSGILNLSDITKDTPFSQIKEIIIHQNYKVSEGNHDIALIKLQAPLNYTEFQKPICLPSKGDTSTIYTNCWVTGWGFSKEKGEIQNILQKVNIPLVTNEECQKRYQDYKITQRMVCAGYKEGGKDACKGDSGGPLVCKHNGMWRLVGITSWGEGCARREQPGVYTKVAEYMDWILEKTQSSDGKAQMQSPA
- METHOD DESCRIPTION: ELISA, biotinylated pKal signal over streptavidin background
ENDPOINT: ELISA (T/B)
One number for each entry.

// solved cases for ELISA (T/B) follow
BINDER	ENDPOINT	MEASURED
M27-B12 (Fab, V domains shown) VH: EVQLLESGGGLVQPGGSLRLSCAASGFTFSWYQMMWVRQAPGKGLEWVSSISPSGGITEYADSVKGRFTISRDNSKNTLYLQMNSLRAEDTAVYYCARDRSSGWYYYGMDVWGQGTTVTVSS VL: QYELTQPPAVSVSPGQTATITCSGDKLGDEYAAWYQQKPGQSPVLVIYQDRKRPSGIPERFSGSNFGNTATLTITGTQVMDEADYYCQAWGKRNVVFGGGTKLTVL	ELISA (T/B)	2.3
M28-E01 (Fab, V domains shown) VH: EVQLLESGGGLVQPGGSLRLSCAASGFTFSSYPMGWVRQAPGKGLEWVSRISSSGGMTIYADSVKGRFTISRDNSKNTLYLQMNSLRAEDTAVYYCARDDWNVGMDVWGQGTTVTVSS VL: DIQMTQSPSSLSASVGDRVTITCRASQSISSYLNWYQQKPGKAPKLLIYAASSLQSGVPSKFSGSGSGTDYTLTISSLQPEDFATYYCQQTYTTPWTFGQGTKVEIK	ELISA (T/B)	41

Turning now to a further binder:
Report measured ELISA (T/B); entry is M10-E06 (Fab, V domains shown) VH: EVQLLESGGGLVQPGGSLRLSCAASGFTFSLYRMFWVRQAPGKGLEWVSSIWSSGGPTMYADSVKGRFTISRDNSKNTLYLQMNSLRAEDTAVYYCAREYPSTYYFDYWGQGTLVTVSS VL: DIQMTQSPSSLSASVGDRVTITCRASQSISTYLNWYQQKPGKAPKLLIYGASSLQSGVPSRFSGSGSGTDFTLTISSLQPEDFTIYYCQQSYSDPYTFGQGTKLDIK
32.8
